Study system: ER beta (Homo sapiens, UniProt Q92731)
Sequence (Q92731 whole entry): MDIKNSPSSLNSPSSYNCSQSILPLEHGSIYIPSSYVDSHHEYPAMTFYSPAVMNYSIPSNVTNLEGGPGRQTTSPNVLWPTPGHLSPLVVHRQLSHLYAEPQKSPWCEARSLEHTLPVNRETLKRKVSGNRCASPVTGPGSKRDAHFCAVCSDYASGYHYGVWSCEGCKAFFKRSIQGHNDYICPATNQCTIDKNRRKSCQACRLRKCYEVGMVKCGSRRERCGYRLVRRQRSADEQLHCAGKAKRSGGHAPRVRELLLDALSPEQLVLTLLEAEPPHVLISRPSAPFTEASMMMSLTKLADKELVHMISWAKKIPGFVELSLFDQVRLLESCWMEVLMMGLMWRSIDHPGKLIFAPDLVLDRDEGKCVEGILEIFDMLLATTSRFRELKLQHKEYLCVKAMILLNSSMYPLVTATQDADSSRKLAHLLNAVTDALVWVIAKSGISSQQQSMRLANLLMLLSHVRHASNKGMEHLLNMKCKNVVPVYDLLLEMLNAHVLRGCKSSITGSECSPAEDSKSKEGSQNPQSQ
Method summary: competition binding assay against a model linear peptide sequence (estrogen receptor-coactivator interaction), ER beta
Test parameters: competition binding assay (Lilly Research Labs); read-out: Ki ER β
Positions of bridges follow the written chain, without caps; N, C: chain ends. Non-standard residues stand in square brackets, D forms with d. Residues, ends and D or L forms follow the SMILES beside them. dPen = CC(C)(S)[C@@H](N)C(=O)O; Pen = CC(C)(S)[C@H](N)C(=O)O
Assay metric: Ki (µM)
Numbers only; they are read as µM.

Input: Tell me the measured Ki of CC[C@H](C)[C@@H]1NC(=O)[C@H](NC(=O)[C@@H](N)CCCNC(=N)N)C(C)(C)SSC(C)(C)[C@@H](C(=O)N[C@@H](CCCNC(=N)N)C(=O)N[C@@H](CC(C)C)C(=O)N[C@@H](CC(C)C)C(=O)N[C@@H](CCC(N)=O)C(N)=O)NC(=O)[C@H](CC(C)C)NC1=O [AKG-II-11] (H-R[dPen]IL[Pen]RLLQ-NH2; disulfide 2-5) , please.
Output: 3.97

* * *

Study system: ER alpha (Homo sapiens)
Sequence (P03372 whole entry): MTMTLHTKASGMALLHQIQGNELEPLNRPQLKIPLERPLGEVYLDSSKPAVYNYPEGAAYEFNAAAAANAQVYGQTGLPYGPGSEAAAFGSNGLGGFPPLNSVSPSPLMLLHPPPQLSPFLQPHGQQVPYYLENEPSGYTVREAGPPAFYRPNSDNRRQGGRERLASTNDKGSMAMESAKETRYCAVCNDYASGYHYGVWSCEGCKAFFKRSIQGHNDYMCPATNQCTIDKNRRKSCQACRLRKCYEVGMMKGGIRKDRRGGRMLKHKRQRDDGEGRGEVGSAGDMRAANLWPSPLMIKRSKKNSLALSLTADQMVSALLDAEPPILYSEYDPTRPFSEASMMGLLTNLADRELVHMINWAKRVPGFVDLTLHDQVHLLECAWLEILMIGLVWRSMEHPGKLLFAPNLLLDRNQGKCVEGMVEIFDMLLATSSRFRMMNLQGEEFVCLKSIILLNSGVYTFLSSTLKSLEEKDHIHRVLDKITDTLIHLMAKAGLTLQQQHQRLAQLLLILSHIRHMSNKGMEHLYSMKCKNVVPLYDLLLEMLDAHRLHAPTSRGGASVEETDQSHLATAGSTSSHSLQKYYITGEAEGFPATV
Method summary: competition binding assay against a model linear peptide sequence (estrogen receptor-coactivator interaction), ER alpha
Test parameters: competition binding assay (Lilly Research Labs); read-out: Ki ER α
Positions of bridges follow the written chain, without caps; N, C: chain ends. Non-standard residues stand in square brackets, D forms with d. Residues, ends and D or L forms follow the SMILES beside them. d(hCys) = N[C@H](CCS)C(=O)O
Could you please report measured pKi for the items listed next?
Expect pKi as a plain number equal to -log10 of the molar concentration.

Input: Item CC[C@H](C)[C@@H]1NC(=O)[C@H](NC(=O)[C@@H](N)CCCNC(=N)N)CSSC[C@@H](C(=O)N[C@@H](CCCNC(=N)N)C(=O)N[C@@H](CC(C)C)C(=O)N[C@@H](CC(C)C)C(=O)N[C@@H](CCC(N)=O)C(N)=O)NC(=O)[C@H](CC(C)C)NC1=O [AKG-I-50] (H-R[dC]ILCRLLQ-NH2; disulfide 2-5) has what recorded pKi?
Output: 7.96

Input: Sample CC[C@H](C)[C@@H]1NC(=O)[C@H](NC(=O)[C@@H](N)CCCNC(=N)N)CCSSC[C@@H](C(=O)N[C@@H](CCCNC(=N)N)C(=O)N[C@@H](CC(C)C)C(=O)N[C@@H](CC(C)C)C(=O)N[C@@H](CCC(N)=O)C(N)=O)NC(=O)[C@H](CC(C)C)NC1=O [AKG-II-4] (H-R[d(hCys)]ILCRLLQ-NH2; disulfide 2-5) — what was its pKi?
Output: 7.46

Input: I'd like to know its pKi. The compound in question is CC[C@H](C)[C@H](NC(=O)[C@H](CCCCN)NC(=O)[C@@H](N)CCCCN)C(=O)N[C@@H](CC(C)C)C(=O)N[C@@H](Cc1c[nH]cn1)C(=O)N[C@@H](CCCNC(=N)N)C(=O)N[C@@H](CC(C)C)C(=O)N[C@@H](CC(C)C)C(=O)N[C@@H](CCC(N)=O)C(N)=O [AML-I-61/2] (H-KKILHRLLQ-NH2)
Output: 6.77

* * *

Study system: ER beta (Homo sapiens)
Method summary: competition binding assay against a model linear peptide sequence (estrogen receptor-coactivator interaction), ER beta
Test parameters: competition binding assay (Lilly Research Labs); read-out: Ki ER β
Positions of bridges follow the written chain, without caps; N, C: chain ends. Non-standard residues stand in square brackets, D forms with d. Residues, ends and D or L forms follow the SMILES beside them. dPen = CC(C)(S)[C@@H](N)C(=O)O; hCys = N[C@@H](CCS)C(=O)O
Assignment: determine reported Ki for the given compounds.
Respond with the bare value in µM.

Input: Quick check: Ki of CC[C@H](C)[C@H](NC(=O)[C@H](CCCCN)NC(=O)[C@H](Cc1c[nH]cn1)NC(=O)[C@@H](N)CCCCN)C(=O)N[C@@H](CC(C)C)C(=O)N[C@@H](Cc1c[nH]cn1)C(=O)N[C@@H](CCCNC(=N)N)C(=O)N[C@@H](CC(C)C)C(=O)N[C@@H](CC(C)C)C(=O)N[C@@H](CCC(N)=O)C(=O)N[C@@H](CC(=O)O)C(=O)N[C@@H](CO)C(=O)N[C@@H](CO)C(=O)O [AML-I-89/2] (H-KHKILHRLLQDSS-OH) ?
Output: 6.9

Input: State the recorded Ki for this entry: CC[C@H](C)[C@@H]1NC(=O)[C@H](NC(=O)[C@@H](N)CCCNC(=N)N)C(C)(C)SSC[C@@H](C(=O)N[C@@H](CCCNC(=N)N)C(=O)N[C@@H](CC(C)C)C(=O)N[C@@H](CC(C)C)C(=O)N[C@@H](CCC(N)=O)C(N)=O)NC(=O)[C@H](CC(C)C)NC1=O [AKG-II-9] (H-R[dPen]ILCRLLQ-NH2; disulfide 2-5)
Output: 0.933

Input: May I ask what Ki has been recorded for CC[C@H](C)[C@@H]1NC(=O)[C@H](NC(=O)[C@@H](N)CCCCN)CSSC[C@@H](C(=O)N[C@@H](CCCNC(=N)N)C(=O)N[C@@H](CC(C)C)C(=O)N[C@@H](CC(C)C)C(=O)N[C@@H](CCC(N)=O)C(N)=O)NC(=O)[C@H](CC(C)C)NC1=O [AML-I-48/4] (H-K[dC]ILCRLLQ-NH2; disulfide 2-5) ?
Output: 0.39

Input: Looking for the measured Ki of CC[C@H](C)[C@@H]1NC(=O)[C@H](NC(=O)[C@@H](N)CCCNC(=N)N)CSSCC[C@@H](C(=O)N[C@@H](CCCNC(=N)N)C(=O)N[C@@H](CC(C)C)C(=O)N[C@@H](CC(C)C)C(=O)N[C@@H](CCC(N)=O)C(N)=O)NC(=O)[C@H](CC(C)C)NC1=O [AKG-II-3] (H-R[dC]IL[hCys]RLLQ-NH2; disulfide 2-5) , can you help?
Output: 0.214

Input: Which Ki is listed for CC(C)C[C@H](NC(=O)[C@H](CC(C)C)NC(=O)[C@H](CCC(N)=O)NC(=O)[C@H](CCC(=O)O)NC(=O)[C@H](CC(C)C)NC(=O)CC1O[C@H](CO)[C@@H](O)[C@H](O)[C@@H]1O)C(=O)O (stereo partly drawn) ?
Output: 339

Input: Give the measured Ki of CC(C)C[C@H](NC(=O)[C@H](CC(C)C)NC(=O)[C@H](CCCNC(=N)N)NC(=O)[C@H]1CSSC[C@@H](NC(=O)[C@@H](N)CCCCN)C(=O)N[C@@H](CC(C)C)C(=O)N1)C(=O)N[C@@H](CCC(N)=O)C(N)=O [AKG-I-64] (H-K[dC]L[dC]RLLQ-NH2; disulfide 2-4) .
Output: 5.2

// data source = patent US20050054770A1
